This section presents IC50 values reported for UniProtKB Q9NWZ3 in the literature.
Sequence (Q9NWZ3 whole entry): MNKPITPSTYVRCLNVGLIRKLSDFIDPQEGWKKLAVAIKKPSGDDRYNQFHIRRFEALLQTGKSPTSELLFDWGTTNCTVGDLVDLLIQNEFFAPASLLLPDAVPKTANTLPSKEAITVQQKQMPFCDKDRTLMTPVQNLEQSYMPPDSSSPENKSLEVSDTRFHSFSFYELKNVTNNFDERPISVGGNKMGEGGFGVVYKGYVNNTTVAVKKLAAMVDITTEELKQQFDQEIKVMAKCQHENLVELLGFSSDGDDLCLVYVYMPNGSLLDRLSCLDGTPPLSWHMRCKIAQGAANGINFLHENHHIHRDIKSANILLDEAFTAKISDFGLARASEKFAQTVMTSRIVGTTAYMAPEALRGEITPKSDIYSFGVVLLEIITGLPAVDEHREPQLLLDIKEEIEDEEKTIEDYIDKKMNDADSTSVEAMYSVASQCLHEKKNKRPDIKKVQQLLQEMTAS

# example entries with known answers
O=C(CCCc1cn(-c2ccccc2)c(NC(=O)c2cccc(-c3ccc4[nH]ncc4c3)c2)n1)NC1CC1: < 50 nM
Cn1cc(-c2cccc(-c3ncc(-c4ccn(C)n4)c(N[C@H]4C[C@@H](N)C4)n3)c2)cn1: 100 to 1000 nM
N#Cc1ccc2ncnc(N[C@H]3CC[C@H](N4CCN(CCOCCOCCOCCOCCOc5ccc6c(c5)C(=O)N(C5CCC(=O)NC5=O)C6=O)CC4)CC3)c2c1 (stereo partly shown): ≥ 1000 nM

# next molecule below
Prompt: Query: IC50; subject: COC[C@@H]1CCCN1NC(=O)CCCCc1cn(-c2ccccc2)c(NC(=O)c2cccc(-c3cn[nH]c3)c2)n1
Response: < 50 nM
